# assayed_system: D(2) dopamine receptor (Homo sapiens, UniProt P14416)
# Sequence (P14416 whole entry): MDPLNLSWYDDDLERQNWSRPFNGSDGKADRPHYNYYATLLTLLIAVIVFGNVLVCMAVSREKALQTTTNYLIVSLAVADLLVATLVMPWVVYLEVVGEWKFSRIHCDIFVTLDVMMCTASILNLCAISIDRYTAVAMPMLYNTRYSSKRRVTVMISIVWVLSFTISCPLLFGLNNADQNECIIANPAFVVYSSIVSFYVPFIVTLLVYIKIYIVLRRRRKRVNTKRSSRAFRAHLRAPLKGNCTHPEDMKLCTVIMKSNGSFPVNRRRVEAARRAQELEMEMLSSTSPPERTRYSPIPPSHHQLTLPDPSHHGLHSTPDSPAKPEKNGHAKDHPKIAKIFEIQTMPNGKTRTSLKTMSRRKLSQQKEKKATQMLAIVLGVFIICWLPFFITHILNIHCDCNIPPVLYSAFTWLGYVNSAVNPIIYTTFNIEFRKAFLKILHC
pKi: −log10 of the molar value.
property_name: pKi

Request: Output pKi of O=C1c2ccccc2C(=O)N1CCCCN1CCC2CCCCC2C1 (stereo unspecified)
Response: < 5.00

====

Sequence of the target: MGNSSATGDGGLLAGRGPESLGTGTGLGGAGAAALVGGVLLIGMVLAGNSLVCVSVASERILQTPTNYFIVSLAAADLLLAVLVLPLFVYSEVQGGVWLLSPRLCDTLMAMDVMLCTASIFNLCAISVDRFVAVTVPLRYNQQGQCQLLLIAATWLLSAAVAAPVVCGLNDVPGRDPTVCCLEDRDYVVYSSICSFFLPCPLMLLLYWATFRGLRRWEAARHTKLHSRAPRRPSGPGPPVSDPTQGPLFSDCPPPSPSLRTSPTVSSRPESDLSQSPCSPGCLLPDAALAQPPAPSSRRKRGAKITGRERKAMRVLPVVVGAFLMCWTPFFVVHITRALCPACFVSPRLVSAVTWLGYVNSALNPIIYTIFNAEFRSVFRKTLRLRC
property_name: Ki

Request: Output Ki of O=C1c2ccccc2C(=O)N1CCCCN1CCC2CCCCC2C1 (stereo unspecified)
Response: > 10 µM
